Target: Adenosine kinase (Mycobacterium tuberculosis (strain CDC 1551 / Oshkosh))
Sequence (P9WID4 whole entry): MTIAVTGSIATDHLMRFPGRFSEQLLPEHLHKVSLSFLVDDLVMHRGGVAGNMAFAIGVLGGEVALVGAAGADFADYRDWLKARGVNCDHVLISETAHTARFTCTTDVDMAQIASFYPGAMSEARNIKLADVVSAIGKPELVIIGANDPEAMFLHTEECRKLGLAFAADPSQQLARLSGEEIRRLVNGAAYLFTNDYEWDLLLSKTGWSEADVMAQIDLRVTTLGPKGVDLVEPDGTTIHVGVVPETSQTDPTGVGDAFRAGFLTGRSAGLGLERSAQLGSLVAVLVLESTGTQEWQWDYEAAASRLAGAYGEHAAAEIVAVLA
Assay: Inhibition of Mycobacterium tuberculosis ADK using [3H]-adenosine by scintillation counting method
PROPERTY LABEL: pIC50
In plain terms, pIC50 is the concentration in mol/L turned into minus its base-10 logarithm.

For OC[C@H]1O[C@@H](n2ccc3c(-c4cccc5c4Oc4ccccc4S5)ncnc32)[C@H](O)[C@@H]1O the compound record lists pIC50 as 5.84

Data point: OC[C@H]1O[C@@H](n2ccc3c(-c4cccc5c4oc4ccccc45)ncnc32)[C@H](O)[C@@H]1O ; pIC50 = 5.63

Looking up OC[C@H]1O[C@@H](n2cc(Cl)c3c(-c4ccoc4)ncnc32)[C@H](O)[C@@H]1O , I found its pIC50 recorded as 6.52
